Entries and their IC50
- target_system: KRAS G12D-GTP & SOS1 (Homo sapiens, UniProt P01116, G12D)
- Sequence (P01116 1-188 isoform P01116-2 G12D): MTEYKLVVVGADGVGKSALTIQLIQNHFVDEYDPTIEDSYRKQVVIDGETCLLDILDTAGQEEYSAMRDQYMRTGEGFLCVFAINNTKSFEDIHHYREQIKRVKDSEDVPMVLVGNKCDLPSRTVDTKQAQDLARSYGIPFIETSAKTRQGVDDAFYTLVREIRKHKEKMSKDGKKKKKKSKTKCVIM
- assay_notes: KRAS G12D/SOS1 Binding Assay (HTRF)
- reported_conditions: competitive binding, 665/615 nm ratio
quantity_name: IC50 (nM)

- molecule: "C#Cc1c(F)ccc2cc(O)cc(-c3nc(C#CC)c4c(N5CCCOCC5)nc(OCC56CCCN5CC(F)C6)nc4c3F)c12 (stereo not drawn)"
  target_system: "KRAS G12D-GTP & SOS1 (Homo sapiens, UniProt P01116, G12D)"
  endpoint_value: 16.3
- molecule: "C#Cc1c(F)ccc2cc(O)cc(-c3nc(C#CCC)c4c(N5CCCOCC5)nc(OCC56CCCN5CC(F)C6)nc4c3F)c12 (stereo not drawn)"
  target_system: "KRAS G12D-GTP & SOS1 (Homo sapiens, UniProt P01116, G12D)"
  endpoint_value: 14.8
- molecule: "CC#Cc1nc(-c2cc(O)cc3ccc(F)c(CC)c23)c(F)c2nc(OCC34CCCN3CC(F)C4)nc(N3CCCOCC3)c12 (stereo not drawn)"
  target_system: "KRAS G12D-GTP & SOS1 (Homo sapiens, UniProt P01116, G12D)"
  endpoint_value: 20.8
